- Tested on: Plasmodium berghei
- protocol_summary: Screen against P. berghei liver stage (PbLuc), transformed with Luciferase, at 2uM
- Type: functional, HepG2
- condition_description: tested at 2 uM
Hit rate of the full screen: of about 68,000 compounds, about 2,700 (4%) showed an effect of 50% or more. The full list was thinned out, with strong results kept by preference.
readout_type: INHIBITION (%)
State just the number; it will be interpreted in %.

{"molecule": "COc1ccccc1[C@@H]1CN(Cc2cnn(C)c2C)C[C@H]1C(=O)O", "target": "Plasmodium berghei", "INHIBITION / %": 0.12}
{"molecule": "Cc1noc(C)c1CN1CCc2ncnc(-c3ccccc3)c2CC1", "target": "Plasmodium berghei", "INHIBITION / %": -20.87}
{"molecule": "O=C(NCCCO)c1cc(-c2cc[nH]n2)n2ccccc12", "target": "Plasmodium berghei", "INHIBITION / %": -50.4}

Query INHIBITION on Plasmodium berghei for CCOCC(=O)N1CCC(Oc2ccc(Cl)cn2)CC1 -4.69

Input C[C@@H]1CN(CC(C)(C)N2CCCCC2)C[C@@]1(O)C1CC1 51.31

Input C[C@@H]1CN(CC(C)(C)N2CCCCC2)CC[C@@]1(O)C1CC1 12.62

Input COCCN1C[C@@H]2CN(S(=O)(=O)c3cccs3)C[C@@H]2C1=O -8.59

Input CC(c1ccon1)N(C)S(=O)(=O)NCc1ccccc1 (stereo unspecified) -6.7

Input CCN1C[C@@H]2CN(S(=O)(=O)c3cccs3)C[C@@H]2C1=O 62.25

Input N#Cc1ccc(OC2CCN(C(=O)c3ccc(Br)o3)CC2)nc1 -2.43

Input CC(=O)N1CCC(Oc2ccc(C#N)cn2)CC1 -1.02

====

- System: Plasmodium berghei
- protocol_summary: Screen against P. berghei liver stage (PbLuc), transformed with Luciferase, at 2uM
- Format: functional, HepG2
- condition_description: tested at 2 uM
Among all 68,000 compounds or so, about 2,700 (4%) showed an effect of 50% or more. This excerpt belongs to a sample that is enriched for strong results.
The molecules listed here are annotated with their INHIBITION.
State just the number; it will be interpreted in %.

{"molecule": "COc1cccc(C2CCN(c3ccc4cc[nH]c4n3)C2)c1OC (stereo unspecified)", "INHIBITION / %": 87.17}

Query INHIBITION on Plasmodium berghei for Cc1n[nH]cc1CNC1CCN(c2ccccc2)CC1 7.83

Input COc1ccccc1C1CCN(c2ccc3cc[nH]c3n2)CC1 76.27

Input Cc1n[nH]cc1CNC1CCN(c2ccc(F)cc2)CC1 -13.72

Input c1ccc(CN2CCN(C3CCOC4(CCOCC4)C3)CC2)nc1 (stereo unspecified) -14.69

Input O=C(NCCOc1ccc(Cl)cn1)Nc1nccs1 50.61

====

- System: Plasmodium berghei
- protocol_summary: Screen against P. berghei liver stage (PbLuc), transformed with Luciferase, at 2uM
- Format: functional, HepG2
- condition_description: tested at 2 uM
Screen size: about 68,000 compounds; about 2,700 (4%) showed an effect of 50% or more. The full list was thinned out, with strong results kept by preference.
readout_type: INHIBITION
Put down the number, then write its unit next to it.

{"molecule": "CCOc1ccc(Br)cc1C1CCCCN1 (stereo unspecified)", "INHIBITION": "-0.44%"}
{"molecule": "O=C(c1cccc(=O)[nH]1)N(Cc1ccsc1)CC1CCCO1 (stereo unspecified)", "INHIBITION": "-2.31%"}
{"molecule": "O=C1CCC(C(=O)N(Cc2ccsc2)CC2CCCO2)=NN1 (stereo unspecified)", "INHIBITION": "50.59%"}
{"molecule": "CCOc1ccc(Cl)cc1C1CCCN1 (stereo unspecified)", "INHIBITION": "-27.75%"}

Look up INHIBITION for this molecule: Cc1cc(CN2CCC3(CC2)CC(C(=O)O)N(C(=O)C2CC2)C3)oc1C (stereo unspecified) 9.11%

Input CN(C)CCN(Cc1ccsc1)C(=O)C1=NNC(=O)CC1 31.51%
